- ASSAYED_SYSTEM: T1, rat NGF (rat, UniProt P25427 122-241)
- T1 construct: also called rN
- T1 sequence (P25427 122-241 limits assumed): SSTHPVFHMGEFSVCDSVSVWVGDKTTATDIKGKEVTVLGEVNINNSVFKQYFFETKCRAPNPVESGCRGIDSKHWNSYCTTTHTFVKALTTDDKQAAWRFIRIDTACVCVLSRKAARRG
- TEST: SPR (Biacore T200), 100 nM mAb on NGF chip, similarity to parent mAb
Listing of recorded Percent Similarity Score (KD on rN) by entry.
READOUT: Percent Similarity Score (KD on rN) (%)

[[record]]
binder = "can48L2VL_L96A (antibody, V domains shown, CDR scanning mutant of ZTS-842 (48L2)) VH: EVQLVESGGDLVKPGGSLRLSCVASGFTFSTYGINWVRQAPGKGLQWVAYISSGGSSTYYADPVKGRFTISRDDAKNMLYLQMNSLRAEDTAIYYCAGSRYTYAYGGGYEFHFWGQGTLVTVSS VL: QAVLNQPASVSGALGQKVTISCSGSTMDIDIFGVSWYQQLPGKAPKLLVDSDGDRPSGIPDRFSGSRSGNSGTLTITGLQAEDEADYHCQSGDSTAGALAIFGGGTHVTVL"
readout = "Percent Similarity Score (KD on rN)"
scale_unit = "%"
readout_value = 93.2

[[record]]
binder = "can48L2VL_I101A (antibody, V domains shown, CDR scanning mutant of ZTS-842 (48L2)) VH: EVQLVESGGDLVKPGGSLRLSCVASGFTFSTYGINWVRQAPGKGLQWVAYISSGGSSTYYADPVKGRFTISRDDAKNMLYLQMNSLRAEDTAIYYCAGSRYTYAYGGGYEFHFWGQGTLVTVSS VL: QAVLNQPASVSGALGQKVTISCSGSTMDIDIFGVSWYQQLPGKAPKLLVDSDGDRPSGIPDRFSGSRSGNSGTLTITGLQAEDEADYHCQSGDSTLGALAAFGGGTHVTVL"
readout = "Percent Similarity Score (KD on rN)"
scale_unit = "%"
readout_value = 99.6

[[record]]
binder = "can9L12VH_H111A (antibody, V domains shown) VH: EVQLVESGGDLVKPGGSLRLSCVASGFTFSSHGMHWVRQSPGKGLQWVAVINSGGSSTYYTDAVKGRFTISRDNAKNTVYLQMNSLRAEDTAMYYCAKESVGGWEQLVGPAFDYWGQGTLVIVSS VL: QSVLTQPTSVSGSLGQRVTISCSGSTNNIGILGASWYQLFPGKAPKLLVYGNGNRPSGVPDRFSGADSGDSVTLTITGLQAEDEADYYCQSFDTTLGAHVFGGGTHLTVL"
readout = "Percent Similarity Score (KD on rN)"
scale_unit = "%"
readout_value = 3.25

[[record]]
binder = "can9L12VL_G97A (antibody, V domains shown) VH: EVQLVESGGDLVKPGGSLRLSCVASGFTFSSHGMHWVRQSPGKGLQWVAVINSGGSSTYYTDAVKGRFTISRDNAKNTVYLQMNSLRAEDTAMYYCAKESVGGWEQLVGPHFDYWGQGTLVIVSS VL: QSVLTQPTSVSGSLGQRVTISCSGSTNNIGILGASWYQLFPGKAPKLLVYGNGNRPSGVPDRFSGADSGDSVTLTITGLQAEDEADYYCQSFDTTLAAHVFGGGTHLTVL"
readout = "Percent Similarity Score (KD on rN)"
scale_unit = "%"
readout_value = 35.9

[[record]]
binder = "can9L12VL_N52A (antibody, V domains shown) VH: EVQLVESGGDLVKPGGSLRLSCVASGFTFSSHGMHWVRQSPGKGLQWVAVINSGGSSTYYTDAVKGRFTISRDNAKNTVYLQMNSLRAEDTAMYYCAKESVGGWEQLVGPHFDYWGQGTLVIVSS VL: QSVLTQPTSVSGSLGQRVTISCSGSTNNIGILGASWYQLFPGKAPKLLVYGAGNRPSGVPDRFSGADSGDSVTLTITGLQAEDEADYYCQSFDTTLGAHVFGGGTHLTVL"
readout = "Percent Similarity Score (KD on rN)"
scale_unit = "%"
readout_value = 100

